molecular target: FLK-1 receptor (Mus musculus, UniProt P35918); construct: expressed in transfected cells; host or cells: NIH3T3 C7#3; assay: FLK-1 ELISA (kinase activity of the FLK-1 receptor in FLK-1/NIH3T3 cells, VEGF stimulated); format: cell-based
Sequence (P35918 20-1345): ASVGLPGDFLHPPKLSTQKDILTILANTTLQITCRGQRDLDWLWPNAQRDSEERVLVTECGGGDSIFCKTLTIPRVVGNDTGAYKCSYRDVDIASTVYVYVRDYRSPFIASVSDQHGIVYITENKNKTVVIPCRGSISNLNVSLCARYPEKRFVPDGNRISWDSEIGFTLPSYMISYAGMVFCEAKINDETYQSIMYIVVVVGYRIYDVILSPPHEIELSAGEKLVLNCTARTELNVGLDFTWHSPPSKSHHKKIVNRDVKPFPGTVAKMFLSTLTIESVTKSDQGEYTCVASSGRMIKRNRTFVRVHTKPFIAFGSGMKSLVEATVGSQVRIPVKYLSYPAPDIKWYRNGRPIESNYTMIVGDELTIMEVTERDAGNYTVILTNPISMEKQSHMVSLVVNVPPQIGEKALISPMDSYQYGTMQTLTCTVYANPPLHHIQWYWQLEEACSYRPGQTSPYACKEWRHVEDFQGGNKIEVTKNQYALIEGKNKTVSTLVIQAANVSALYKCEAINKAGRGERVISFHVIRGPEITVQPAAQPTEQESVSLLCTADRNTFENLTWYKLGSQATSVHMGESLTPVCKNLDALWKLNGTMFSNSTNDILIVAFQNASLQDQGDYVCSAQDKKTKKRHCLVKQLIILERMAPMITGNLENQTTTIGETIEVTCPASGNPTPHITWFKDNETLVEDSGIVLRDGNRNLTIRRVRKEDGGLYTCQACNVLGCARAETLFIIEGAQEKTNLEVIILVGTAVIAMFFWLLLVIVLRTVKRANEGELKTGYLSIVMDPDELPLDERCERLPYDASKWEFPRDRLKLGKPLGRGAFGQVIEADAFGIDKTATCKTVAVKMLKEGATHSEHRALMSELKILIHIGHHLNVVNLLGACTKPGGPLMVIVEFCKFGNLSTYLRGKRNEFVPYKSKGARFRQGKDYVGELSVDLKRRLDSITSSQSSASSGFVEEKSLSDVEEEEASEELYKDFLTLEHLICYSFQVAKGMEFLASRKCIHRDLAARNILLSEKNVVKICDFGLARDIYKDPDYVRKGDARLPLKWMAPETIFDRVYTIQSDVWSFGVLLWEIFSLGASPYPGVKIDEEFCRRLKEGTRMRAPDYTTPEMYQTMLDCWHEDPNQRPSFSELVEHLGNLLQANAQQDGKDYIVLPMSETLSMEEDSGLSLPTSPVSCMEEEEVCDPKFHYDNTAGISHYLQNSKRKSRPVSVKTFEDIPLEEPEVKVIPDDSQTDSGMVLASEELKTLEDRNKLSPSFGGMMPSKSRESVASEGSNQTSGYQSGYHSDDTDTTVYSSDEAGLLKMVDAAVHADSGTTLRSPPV
Below: a set of entries, each annotated with reported Fik Kinase %Inhibition.
State the answer as a number, implicitly in %.

- Molecule: "Cc1c(Br)ccc2c1C(=Cc1c[nH]c(=O)[nH]c1=O)C(=O)N2"
  Observable: "Fik Kinase %Inhibition"
  Measurement unit: "%"
  Recorded number: 10.2
- Molecule: "COc1c(C(C)C)cc(C=C2C(=O)Nc3ccc(I)cc32)cc1C(C)C"
  Observable: "Fik Kinase %Inhibition"
  Measurement unit: "%"
  Recorded number: 8.2
- Molecule: "Cc1c(Br)ccc2c1C(=CC1C=CCCC1)C(=O)N2 (stereo not drawn)"
  Observable: "Fik Kinase %Inhibition"
  Measurement unit: "%"
  Recorded number: 10.4

Task: Using the record for CCOc1cccc(C=C2C(=O)Nc3ccc(S(=O)(=O)N4CCOCC4)cc32)c1O , report its Fik Kinase %Inhibition.
Output: 6.2

Task: Which Fik Kinase %Inhibition value belongs to O=C1Nc2ccc(S(=O)(=O)Nc3ccc(C(F)(F)F)cc3)cc2C1=Cc1cc([N+](=O)[O-])ccc1O ?
Output: 5.5
